system: HEK-293T; assay: Incucyte cell viability with HEK293T; assay type: toxicity, cell-based; conditions: human, 18 h, 10 µM, compound concentration 10 uM, replicate number 1, timepoint 18 hours; note: filed as whole numbers so only -1 and 0 and 1 occur
experimental_readout: Growth Rate
Answer with a number only.

A selection of reference data follows.
>  <structure_notation>
CC(C)C[C@H](CO)Nc1nc(S[C@@H](C)c2ccccc2)nc2nc(N)sc12

>  <tgt>
HEK-293T

>  <result>
0

$$$$
>  <structure_notation>
COc1ccnc(N2CCC3(CCCN(Cc4c[nH]c5ccccc45)C3=O)CC2)n1

>  <tgt>
HEK-293T

>  <result>
1

$$$$
>  <structure_notation>
CNC(=O)c1ccccc1Nc1cc(Nc2ccc(N3CCOCC3)cc2OC)ncc1C(F)(F)F

>  <tgt>
HEK-293T

>  <result>
0

$$$$
>  <structure_notation>
COCC(=O)NC/C=C/c1ccc2ncnc(Nc3ccc(Oc4ccc(C)nc4)c(C)c3)c2c1

>  <tgt>
HEK-293T

>  <result>
0

$$$$
>  <structure_notation>
CC(=O)C1=C(C)N(c2cccc(C(F)(F)F)c2)C(=O)N[C@@H]1c1ccc(C#N)nc1

>  <tgt>
HEK-293T

>  <result>
1

$$$$

Bench note: what Growth Rate did CCCCCCCCCCCCCCCCOC[C@H](COP(=O)([O-])OCC[N+](C)(C)C)OC(C)=O show?
1

Now try CCCS(=O)(=O)Nc1ccc(F)c(C(=O)c2c[nH]c3ncc(Cl)cc23)c1F .
0

Now try C=CC(=O)N1CCC([C@@H]2CCNc3c(C(N)=O)c(-c4ccc(Oc5ccccc5)cc4)nn32)CC1 .
0

---

test system: HEK-293T; assay: Multiplex assay against HEK293T; format: toxicity, cell-based; conditions: human, 48 h, 10 µM, compound concentration 10 uM, replicate 1
Here, each record is paired with measured Population Mitochondria Different-Phenotype (%) data.
Numeric answer only, unit % assumed.

A selection of reference data follows.
>  <molecule>
CN1C2CCC1CC(OC(c1ccc(F)cc1)c1ccc(F)cc1)C2.Cl (stereo not given)

>  <result>
100

$$$$
>  <molecule>
Cl.O=C(c1ccc(Nc2nccc(-c3cc4ccccc4s3)n2)cc1)N1CCC(N2CCCC2)CC1

>  <result>
100

$$$$
>  <molecule>
Cc1ccc(C(=O)Nc2cccc(C(F)(F)F)c2)cc1Nc1nc(-c2cccnc2)nc2c1cnn2C

>  <result>
100

$$$$
>  <molecule>
CNc1cc(Oc2cc(C(=O)Nc3cc(N4CCN(C)CC4)cc(C(F)(F)F)c3)ccc2C)ncn1

>  <result>
100

$$$$

Shifting focus to the molecule that follows.
Bench note: what Population Mitochondria Different-Phenotype (%) did CCCn1c(=O)c2[nH]c(-c3cnn(Cc4cccc(C(F)(F)F)c4)c3)nc2n(CC)c1=O [GS 6201] show?
62

---

system: HEK-293T; experiment: Multiplex assay against HEK293T; type: toxicity, cell-based; conditions: human, 12 h, 1 µM, compound concentration 1 uM, replicate 1
Here, each record is paired with measured Population Mitochondria Different-Phenotype (%) data.
Numeric answer only, unit % assumed.

>  <compound>
COc1cc2ncnc(Nc3ccc(F)c(Cl)c3)c2cc1NC(=O)/C=C/CN1CCCCC1 [DACOMITINIB ANHYDROUS]

>  <result>
41

$$$$
>  <compound>
CCOc1cc(C(=O)N2CCC(N3CCN(C)CC3)CC2)ccc1Nc1ncc2c(n1)N(C1CCCC1)c1ccccc1C(=O)N2C

>  <result>
93

$$$$
>  <compound>
CCn1c(=O)c(-c2ccc(-c3cncs3)cc2Cl)cc2cnc(Nc3ccc(N4CCN(C)CC4)cc3)nc21

>  <result>
79

$$$$

Bench note: what Population Mitochondria Different-Phenotype (%) did Cl.Oc1ccc2c3c1O[C@H]1c4[nH]c5c(c4C[C@@]4(O)[C@@H](C2)N(CC2CC2)CC[C@]314)C[C@@]1(O)[C@H]2Cc3ccc(O)c4c3[C@@]1(CCN2CC1CC1)[C@H]5O4 show?
74

Now try CCNc1cc(N[C@H]2CC[C@H](O)CC2)nc(Nc2ccc3c(ccn3Cc3ccccc3)c2)n1 .
27

Now try CNc1cc(Oc2cc(C(=O)Nc3cc(N4CCN(C)CC4)cc(C(F)(F)F)c3)ccc2C)ncn1 .
96

Now try COc1cccc2cc(-c3nc([C@H]4CC[C@H](C(=O)O)CC4)n4ncnc(N)c34)[nH]c12 [OSI-027] .
10

meta.source: ChEMBL document CHEMBL4689842
